target: T1, human-CD40 monomer (human, UniProt P25942 21-193, limits assumed); test: SPR 2 pt screen, Ab on protein A
T1 construct: also called hCD40-monomer; human-CD40-monomer protein
T1 sequence (P25942 21-193 limits assumed): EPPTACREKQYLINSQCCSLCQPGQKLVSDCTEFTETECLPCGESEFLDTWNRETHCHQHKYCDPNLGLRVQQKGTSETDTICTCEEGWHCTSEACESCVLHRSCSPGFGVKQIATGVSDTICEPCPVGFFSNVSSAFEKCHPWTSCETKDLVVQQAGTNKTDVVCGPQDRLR
readout: kon
State the value, then name its unit.

The reported kon of the binder humanized Y1238 hz36 (hz-HC8 / hz-LC1), IgG1.3f (antibody, V domains shown, IgG1.3f heavy constant, common CL; expression supernatant; also called Sup 36) VH: QVQLVQSGAEVVKPGASVKVSCKASGYAFTNYLIEWVRQRPGQGLEWMGVINPGSGGTNYNEKFKGRVTLTADKSSSTAYMQLSRLRSDDTAVYFCARSQLGRRFDYWGQGTLVTVSS VL: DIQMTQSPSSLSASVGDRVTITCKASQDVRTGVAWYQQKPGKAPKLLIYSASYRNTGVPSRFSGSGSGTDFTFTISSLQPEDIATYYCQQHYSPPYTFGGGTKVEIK was 39000 M⁻¹ s⁻¹

More entries:
The reported kon of the binder humanized Y1238 hz28 (hz-HC6 / hz-LC3), IgG1.3f (antibody, V domains shown, IgG1.3f heavy constant, common CL; expression supernatant; also called Sup 28) VH: QVQLVQSGAEVKKPGASVKVSCKASGYAFTNYLIEWVRQRPGQGLEWMGVINPGSGGTNYNEKFKGRVTLTADKSISTAYMELSRLRSDDTAVYYCARSQLGRRFDYWGQGTLVTVSS VL: DIQMTQSPSSLSASVGDRVTITCKASQDVRTGVAWYQQKPGQSPKLLIYSASYRNTGVPSRFSGSRSGTDFTFTISSLQPEDIAVYYCQQHYSPPYTFGGGTKVEIK was 42000 M⁻¹ s⁻¹

The origin of these recorded values is patent US20220177596A1.
